tested on: SF-295 CNS; assay: NCI tumour cell line growth inhibition, 48 h
PARAMETER: TGI

Field: example entries. Status: answers known.
O=C1N(c2ccccc2)N=C2c3ccncc3C3=NN(c4ccccc4)C(=O)C123 (stereo unspecified)	> 100 µM
NCCCCNCCCNC(=O)c1csc(-c2nc(CCN)sc2Cl)n1	> 100 µM
Nc1nc(=O)n(C2CC(O)C(CO)O2)c2nc(-c3ccc(-c4ccccc4)cc3)cnc12 (stereo unspecified)	> 100 µM

Kindly give each listed record's TGI.
1. O=C(O)c1cccc(F)c1C(=O)c1ccc2ccccc2c1
2. COc1cccc(-c2nn(C)c3sc(C(=O)NCCN4CCN(c5ccccc5F)CC4)cc23)c1
3. Cc1c(OCc2cccc3ccccc23)ccc2c(=O)cc(S)oc12
4. COc1ccc(/C=C2\NC(=S)N(CN3CCOCC3)C2=O)cc1
5. c1ccc(Oc2cnc3ccccc3n2)cc1
6. COc1cc(CNC(=O)CCCCCCCCCCSC#N)ccc1O
7. OC1/C(=C/c2ccccc2)CNC/C1=C\c1ccccc1 (stereo unspecified)

Result:
> 100 µM
29 µM
88.7 µM
> 100 µM
> 100 µM
37.4 µM
> 100 µM

Q: Look up TGI of c1ccc2c(CCNC3=NCCO3)cccc2c1 and report it.
Result: > 10 µM

* * *

I'd appreciate it if you could supply TGI values for the items below.
tested on: SNB-75 CNS; assay: NCI tumour cell line growth inhibition, 48 h

Cc1ccc(Sc2cc([N+](=O)[O-])cc(Sc3ccc(C)cc3)c2Sc2ccc(C)cc2)cc1	> 100 µM
CSc1nc(NC2OC(CO)C(O)C(O)C2O)c(N)c(=O)[nH]1 (stereo not given)	> 100 µM
Nc1c(C(=O)Nc2cccc3ccccc23)sc2nc3c(cc12)CCCCCC3	> 50 µM
NC(CSC(c1ccccc1)(c1ccccc1)c1ccc(Br)cc1)C(=O)O (stereo not given)	> 50.8 µM
COc1ccc([C@H]2C=C(c3cc(F)c(Cl)cc3Cl)N=c3s/c(=C\c4ccc(-c5ccc(Cl)cc5Cl)o4)c(=O)n32)cc1	> 100 µM

Provide reported TGI for each item, in the same order as listed.
1. O=C1CCCC1C(O)(C(F)(F)Cl)C(F)(F)Cl (stereo not given)
2. COc1cc(Cl)c(C)cc1NC(=O)c1cc2ccccc2cc1O
3. NCCCSCC(=O)O
4. CCC1(O)CC(c2ccccc2)N(C)C(c2ccccc2)C1 (stereo not given)

Result:
> 10 µM
9.37 µM
> 100 µM
> 100 µM

* * *

tested on: RXF 393 renal; test: NCI tumour cell line growth inhibition, 48 h; in the data active = GI50 below about 0.43 µM; inactive = the rest
Your answer must be one of the following: active, inactive

Worked cases, answers included:
COc1cc(/C=C/C(=O)c2ccc(SC)cc2)cc(OC)c1OC	inactive
CCOc1ccc(-n2cc(-c3ccc(N(C)C)cc3)[n+]3c2CCCCC3)cc1	inactive
C=C(C=O)[C@@H]1CC=C(C=O)CC1	inactive

Q: Query: recorded result category for COc1cc2c(cc1OC)-c1c(c3ccc([N+](=O)[O-])cc3c(=O)n1CCCBr)C2=O in this test
Result: inactive

Q: Identify the outcome logged in this assay for the compound shown: N=C(N)c1ccc(-c2ccc(-c3ccccc3)o2)o1
Result: inactive

Q: Could you check what this test reported for CN(Cc1cccc(Cl)c1)c1ccc(CO)c(Cl)c1 ?
Result: inactive

Q: Outcome? CCCCCCCCCCCC(=O)[O][Sn]([CH2]CCC)([CH2]CCC)[CH2]CCC
Result: active

Q: Name the outcome recorded for COc1ccc(-n2cc(-c3ccc(F)cc3)[nH]c2=O)cc1OC in the assay.
Result: inactive

* * *

system: SK-OV-3 ovarian; experiment: NCI tumour cell line growth inhibition, 48 h; in the data active = GI50 below about 0.43 µM; inactive = the rest
Field 'call' accepts 1.0 (active), 0.0 (inactive)

O=C(/C=C/c1ccco1)c1cccc(Nc2nc(Nc3ccccc3)nc(Nc3ccccc3)n2)c1	0.0

Q: What classification did c1ccc(Oc2cnc3ccccc3n2)cc1 end up with in this test?
Result: 0.0

Q: Recorded call for COc1cc(/C=C/C(=O)c2ccc(SC)cc2)cc(OC)c1OC ?
Result: 0.0

Q: Please indicate how the test categorized C=CCOc1ccc2c(c1)CC[C@@H]1[C@@H]2CC[C@]2(C)C(=O)/C(=N/O)C[C@@H]12 .
Result: 0.0

Q: Hi, sorry to bother you, what did the test record for NC(CSC(c1ccccc1)(c1ccccc1)c1ccc(Br)cc1)C(=O)O (stereo not given) ?
Result: 1.0

* * *

test system: A498 renal; experiment: NCI tumour cell line growth inhibition, 48 h
PARAMETER: TGI

Take a look at these entries with their results.
O=C(O)c1cccc(F)c1C(=O)c1ccc2ccccc2c1	> 100 µM
O=C(NCCOCCO)c1ccc(O)cc1	> 100 µM
CCN(CC)[C@@H]1c2cc3c(cc2C(c2cc(OC)c(O)c(OC)c2)C2C(=O)CO[C@@H]21)OCO3 (stereo partly drawn)	> 100 µM
COc1ccc2oc(=O)c(-c3nc4ccccc4s3)cc2c1	54.2 µM
COc1ccc(/C=C2\CCC(CN(C)C)C2=O)cc1 (stereo not drawn)	28.9 µM
COc1ccc2c(C(=O)NCCCCCC(=O)O)cc3cc4c(cc3c2c1)OCO4	> 100 µM
c1ccc2c[n+](Cc3ccnc4ccccc34)ccc2c1	> 100 µM
CN(C)CCNc1nc2c(c(=O)n(C)c(=O)n2C)n1C	> 100 µM
COC(=O)/C=C/c1cc(OC)c2c(c1)[C@@H](C(=O)OC)[C@H](c1ccc(OC)c(OC)c1)O2	33 µM
COC(=O)C1=C(C(=O)OC)C2CCC1CC2=O (stereo not drawn)	> 100 µM

I need TGI for every entry listed below, if you could help.
1. COC(=O)CC(c1ccccc1)C(C#N)(OP1(=O)OC(c2ccccc2)C(C)N1C)c1ccccc1 (stereo not drawn)
2. COc1ccc2nc3c(cc2c1)C(=O)CC(C(F)(F)F)C3 (stereo not drawn)
3. FC(F)(F)c1ccc(N=NN2CCCC2)cc1
4. C[C@]12CC[C@H](O)CC1CCC[C@@H]2O (stereo partly drawn)
5. O=C(CN1CCOCC1)c1ccc2c(c1)oc(=O)n2CCN1CCCCC1
6. CC1(C)CC(=O)C(/C=N/c2nc(-c3cccc([N+](=O)[O-])c3)cs2)=C(O)C1
7. COc1cc(Nc2nccc(-c3cnn4ncccc34)n2)cc(OC)c1

Result:
1. > 100 µM
2. 1.55 µM
3. > 100 µM
4. > 100 µM
5. > 100 µM
6. 30.5 µM
7. 0.183 µM

Q: Return the recorded TGI value; entry: CCCCCCCCCCCC(=O)[O][Sn]([CH2]CCC)([CH2]CCC)[CH2]CCC
Result: 0.0883 µM

* * *

tested on: SK-MEL-28 melanoma; experiment: NCI tumour cell line growth inhibition, 48 h
PARAMETER: TGI

Some entries whose results are on file:
OCC1C2C=CC(O2)[C@H]1CO (some centres undefined)	> 100 µM
CC/C(=C(/c1ccc(Cl)cc1)c1ccc(OCCCN(C)C)cc1)c1ccc(OC)cc1	3.84 µM
c1ccc2c(CCNC3=NCCO3)cccc2c1	> 10 µM
COc1cc(CNC(=O)CCCCCCCCCCSC#N)ccc1O	21.1 µM
O=C1CN2CCN(CC2)CC(=O)Nc2ccc(cc2)S(=O)(=O)c2ccc(cc2)NC(=O)CN2CCN(CC2)CC(=O)Nc2ccc(cc2)S(=O)(=O)c2ccc(cc2)N1	> 100 µM
CN(CC(=O)O)Cc1c[nH]c2ccccc12	> 100 µM
O=C1C=C(NCCc2ccc(O)cc2)C(=O)C=C1NCCc1ccc(O)cc1	> 100 µM
FC(F)(F)c1ccc(N=NN2CCCC2)cc1	> 100 µM

Please give TGI for each item listed below.
1. CC12CCC(C)(c3cc(O)c(O)cc31)c1cc(O)c(O)cc12
2. COc1cccc(/C=N/[N-]C(N)=O)c1[O-].[Cu+2].c1ccncc1
3. O=C(CN1CCOCC1)c1ccc2c(c1)oc(=O)n2CCN1CCCCC1
4. O=[N+]([O-])c1cc(C2ON=C(c3ccccc3)N2C23CC4CC(CC(C4)C2)C3)ccc1Cl (centres undefined)
5. COc1ccccc1NC(=O)C(=O)C(C#N)CC(C)(C)C=O (centres undefined)
6. O=c1n(CC2CO2)c2ccccc2n1CC1CS1 (centres undefined)
7. CC1=NN(c2cccc(S(=O)(=O)O)c2)C2(C1)SCC(=O)N2c1nc2ccccc2s1 (centres undefined)

Result:
["34.1 µM", "33.9 µM", "> 100 µM", "> 100 µM", "> 100 µM", "> 100 µM", "> 100 µM"]

* * *

What TGI was measured for each of the following?
system: SK-MEL-28 melanoma; experiment: NCI tumour cell line growth inhibition, 48 h
One number for each entry, in µM.

Some compounds with known TGI results, for comparison:
CCN(CC)C(=O)N1CN(c2ccccc2)C2(CCN(CCCC3(c4ccc(F)cc4)OCCO3)CC2)C1=O	26.7
O=C1OCC(CN2CCC(n3c(=O)[nH]c4ccccc43)CC2)=C1c1ccccc1	61
C=CCOC1=C(OC(C)=O)C(C2COC(C)(C)O2)OC1=O (stereo not given)	46.7
C=C(C=O)[C@@H]1CC=C(C=O)CC1	5.87
COc1cc(Nc2nccc(-c3cnn4ncccc34)n2)cc(OC)c1	0.38
O=C(CCCN1CCC(Nc2ccc(F)cc2)(c2nnnn2C2CCCCC2)CC1)c1ccc(F)cc1	30.5
COc1cc(/C=C/C(=O)c2ccc(SC)cc2)cc(OC)c1OC	32.5

Q: Look up and report measured TGI (SK-MEL-28 melanoma) for the following compound: COc1ccc(-c2nn(C(=O)c3cc(OC)c(OC)c(OC)c3)c3cc(N)ccc23)cc1
Result: 24.3
